Where do these numbers come from? They come from patent US20160227776A1.

# Tested on: Frankliniella occidentalis
# test_details: Test Example 1: water trap attraction test, single compounds
# Format: in vivo
# assay_conditions: single compound, Amount 0.1 μg; 30 adult females per cage; 24 hours
measurement_label: Attraction Rate
Note: the reply should be a number with no unit written.

Need Attraction Rate of COC(=O)c1ccccc1N [Methyl anthranilate, methyl anthranilate] , thanks.
13

Need Attraction Rate of CCOC(=O)c1cccnc1 [Ethyl nicotinate, ethyl nicotinate] , thanks.
27

Need Attraction Rate of CC(C)=CCCC(C)CCO (centres unmarked) , thanks.
20

Need Attraction Rate of COC(=O)c1cccc(N)c1 [Methyl m-aminobenzoate, methyl m-aminobenzoate] , thanks.
10

Need Attraction Rate of COC(=O)c1ccccc1 [Methyl benzoate, methyl benzoate] , thanks.
23
